// data source = ChEMBL document CHEMBL4190221

System: VSMC
EXPERIMENT: Cytotoxicity against Sprague-Dawley rat VSMC assessed as decrease in cell viability at 5 to 10 uM after 24 hrs by MTT assay
Format: cell-based
MEASURED_PROPERTY: Activity

CO[C@H]1O[C@]23C=C[C@@H]4[C@@]1(CC[C@]1(C)[C@@H]([C@H](C)C/C=C/C(C)(C)OC)CC[C@@]41C)[C@@H]2CC[C@H](OC(=O)C(=O)O)C3(C)C | Non-Toxic
C[C@H](C/C=C/C(C)(C)O)[C@H]1CC[C@@]2(C)[C@@H]3[C@@H](O)C=C4[C@@H](CC[C@H](OC(=O)CC(=O)O)C4(C)C)[C@]3(C=O)CC[C@]12C | Non-Toxic
C[C@H](C/C=C/C(C)(C)O)[C@H]1CC[C@@]2(C)[C@@H]3C=C[C@@]45OC(=O)[C@]3(CC[C@]12C)[C@@H]4CC[C@H](O[C@@H]1O[C@H](CO)[C@@H](O)[C@@H](O)[C@H]1O)C5(C)C | Non-Toxic
